Numbers sourced from patent US4487937A.

tested on: Streptococcus faecalis 5 432; assay: In vitro MIC, dilution of a liquid medium; format: cell-based; conditions: Enterococcus faecalis, 5432; 48 H, 37° C.; read-out: minimum inhibiting concentration (MIC)
property measured: MIC (µg/mL)

molecule: CCOC(=O)CO/N=C(\C(=O)NC1C(=O)N2C(C(=O)O)=C(COC(C)=O)CS[C@H]12)c1csc(N)n1 (some centres unmarked)
property measured: MIC
uom: µg/mL
relation sign: >
val: 40

molecule: CC(=O)OCC1=C(C(=O)O)N2C(=O)C(NC(=O)/C(=N\OC(C)(C)C(=O)O)c3csc(N)n3)[C@H]2SC1 (some centres unmarked)
property measured: MIC
uom: µg/mL
relation sign: >
val: 40

molecule: CC(=O)OCC1=C(C(=O)O)N2C(=O)C(NC(=O)/C(=N\OCC(=O)O)c3csc(N)n3)[C@H]2SC1 (some centres unmarked)
property measured: MIC
uom: µg/mL
relation sign: >
val: 40

molecule: CC(=O)OCC1=C(C(=O)O)N2C(=O)C(NC(=O)/C(=N\OCC#N)c3csc(N)n3)C2SC1 (centres unmarked)
property measured: MIC
uom: µg/mL
relation sign: =
val: 20

molecule: CC(=O)OCC1=C(C(=O)O)N2C(=O)C(NC(=O)/C(=N\OCC(N)=O)c3csc(N)n3)[C@H]2SC1 (some centres unmarked)
property measured: MIC
uom: µg/mL
relation sign: =
val: 20
